# study_system: Fuc(a1-2)[GalNAc(a1-3)]Gal(b1-3)GlcNAc
# assay_remarks: glycan array binding signal (z-score within array); higher = stronger binding
# test_context: glycan notation: IUPAC condensed, linker removed
The sample as a whole holds a higher share of the strongest signals than the screen did.
# key: entry, value: glycan array binding signal (z-score)

# binder, glycan array binding signal (z-score)
rows = [
    ("Epa3 (Candida glabrata), Q6VBI8_CANGB (protein) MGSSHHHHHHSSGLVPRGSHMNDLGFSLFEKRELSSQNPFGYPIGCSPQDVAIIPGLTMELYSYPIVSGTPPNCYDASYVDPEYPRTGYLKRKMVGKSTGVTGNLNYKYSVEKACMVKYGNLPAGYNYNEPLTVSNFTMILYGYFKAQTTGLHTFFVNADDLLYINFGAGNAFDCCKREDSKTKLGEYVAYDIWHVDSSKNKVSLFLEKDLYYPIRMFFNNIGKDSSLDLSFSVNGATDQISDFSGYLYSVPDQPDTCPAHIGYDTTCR", -0.201),
    ("Mnn9-2N3 (Aspergillus fumigatus) (protein) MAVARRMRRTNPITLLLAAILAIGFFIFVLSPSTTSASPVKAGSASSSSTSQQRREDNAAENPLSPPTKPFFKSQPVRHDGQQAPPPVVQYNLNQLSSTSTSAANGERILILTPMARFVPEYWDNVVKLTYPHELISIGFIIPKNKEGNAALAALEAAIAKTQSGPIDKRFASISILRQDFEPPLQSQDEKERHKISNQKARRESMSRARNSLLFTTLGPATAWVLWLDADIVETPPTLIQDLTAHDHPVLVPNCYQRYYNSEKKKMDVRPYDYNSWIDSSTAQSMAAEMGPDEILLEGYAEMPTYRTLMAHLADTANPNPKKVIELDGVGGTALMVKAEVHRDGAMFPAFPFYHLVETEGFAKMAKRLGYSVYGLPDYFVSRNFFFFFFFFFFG", -1.58),
    ("ConA (Canavalia ensiformis), P02866 (protein) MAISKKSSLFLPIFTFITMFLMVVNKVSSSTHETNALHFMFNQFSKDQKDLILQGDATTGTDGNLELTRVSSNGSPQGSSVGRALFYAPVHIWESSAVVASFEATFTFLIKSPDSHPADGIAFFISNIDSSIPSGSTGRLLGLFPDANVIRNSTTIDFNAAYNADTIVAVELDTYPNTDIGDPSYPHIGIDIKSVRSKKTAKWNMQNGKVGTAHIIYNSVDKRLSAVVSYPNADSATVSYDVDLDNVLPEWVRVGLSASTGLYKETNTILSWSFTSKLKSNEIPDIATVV", -0.279),
]
